- Tested on: CP297
- protocolDetails: qHTS profiling for inhibitors of Plasmodium falciparum proliferation (AID 504749); further: nearly all actives have a fitted effect of over 60% in size; further: potency means the concentration at half of the fitted maximal effect
- measurementSetup: P. falciparum in erythrocytes, SYBR Green DNA, 72 h; series mostly up to 28.7 µM
Results filed as inconclusive are left out. The source made the active and inactive calls. The call rests on the fitted dose curve; in most records, active means well fitted inhibition curve with a large enough effect; inconclusive means small, poorly fitted or top-dose-only effect; inactive means flat fitted curve, though single readings scatter.

compound: NC(=O)c1ncn(C2OC(CO)C(O)C2O)n1 (centres undefined)
systemUnderTest: CP297
Potency: inactive
--
compound: CC[C@@]1(O)C(=O)OCc2c1cc1n(c2=O)Cc2cc3c([N+](=O)[O-])cccc3nc2-1
systemUnderTest: CP297
Potency: 12 µM (active)
--
compound: O=S(=O)(O)O
systemUnderTest: CP297
Potency: inactive
--
compound: Cc1ccccc1OCC(O)CNCCOc1ccc(C(N)=O)cc1 (centres undefined)
systemUnderTest: CP297
Potency: inactive

---

- protocolDetails: qHTS drug screen for cell cycle checkpoint inhibitors in PARPi-resistant BRCA-mutant ovarian cancer cell lines. (AID 1963452)
- measurementSetup: PEO1/OlaR viability, CellTiter-Glo luminescence, 96 h; measured here: PEO1 parental Z-AUC; stronger effect = lower value
observable: Z-AUC
Form field (numeric): enter value without unit.

## Input Which Z-AUC value belongs to O=C(O)c1cnn(-c2nc3cc(OC(F)(F)F)c(Cl)cc3[nH]2)c1 ?
## Output -0.102

## Input Could you do the same for CC1(C)O[C@@H]2C[C@H]3[C@@H]4CCC5=CC(=O)C=C[C@]5(C)[C@H]4[C@@H](O)C[C@]3(C)[C@]2(C(=O)CO)O1 , please?
## Output 1.46

## Input Could you do the same for CCC(=O)NS(=O)(=O)c1ccc(-c2c(-c3ccccc3)noc2C)cc1 , please?
## Output -1.08

## Input Could you do the same for Cc1nc2c(-c3cnc(N)nc3)nc(N3CCOCC3)nc2n1C(C)C , please?
## Output -1.56

---

- Tested on: CRL-7250
- protocolDetails: Cytotoxic Profiling of Annotated Libraries Using Quantitative High-Throughput Screening (AID 1296008); further: on the % scale 0 is the no-effect control and ±100 the full control effect; nearly all actives have a fitted effect of over 60% in size
- measurementSetup: Five cell lines viability, CellTiter-Glo ATP luminescence, 48-72 h; stronger effect = lower value
Records with an inconclusive call do not appear.
I'd be grateful if you could share measured max response for these entries.
Note: unit % is implicit; provide only the numeric part.

## Input What is its max response for CRL-7250? Entry: Nc1ccn([C@@H]2C(F)=C(CO)[C@@H](O)[C@H]2O)c(=O)n1
## Output -25.3

## Input Could you do the same for C[C@@H]1C[C@H](O)/C=C/[C@H](O)[C@@H](O)CC(=O)O1 , please?
## Output 2.61

## Input Could you do the same for CC1=CC2(O)/C=C/C(C)(O)CC(O)/C=C/C(=O)OC23C(=O)NC(CC(C)C)C3C1C (centres undefined) , please?
## Output -2.92

## Input Could you do the same for COc1c(C(CC(C)C)OC(C)=O)ccc(Oc2c(O)cc(C)cc2/C=C/C(C)=O)c1C(=O)O (centres undefined) , please?
## Output -10.2

---

- Test system: astro
- protocolDetails: Drug repurposing screens with cells derived from glioblastoma tumor samples (AID 1345199); further: nearly all actives have a fitted effect of over 40% in size
- measurementSetup: viability, ATP luminescence, 48 h; series mostly up to 45.9 µM
Results filed as inconclusive are left out. Calls of active or inactive are those of the source. The call rests on the fitted dose curve; in most records, active means well fitted inhibition curve with a large enough effect; inconclusive means small, poorly fitted or top-dose-only effect; inactive means flat fitted curve, though single readings scatter.
Response enum: T for active, F for inactive

## Input Which outcome was assigned to CCC(=O)NS(=O)(=O)c1ccc(-c2c(-c3ccccc3)noc2C)cc1 in this test?
## Output F

## Input Could you do the same for CCOC(=O)C1=C(C)NC(C)=C(C(=O)OCC)C1c1ccccc1C=CC(=O)OC(C)(C)C , please?
## Output T

## Input Could you do the same for CC(=O)OC(C)OC(=O)C(C)c1ccc(-c2ccccc2)c(F)c1 (stereo unspecified) , please?
## Output F

## Input Could you do the same for CCOC(C)=O , please?
## Output F

## Input Could you do the same for O=C(COc1ccc(Cl)cc1)OCCNC12CC3CC(CC(C3)C1)C2 , please?
## Output F

## Input Could you do the same for OCCO[C@@H]1[C@@H](O)[C@H](O)[C@@H](CO)O[C@@H]1O , please?
## Output F

## Input Could you do the same for Cc1ccccc1OCC(O)CNCCOc1ccc(C(N)=O)cc1 (stereo unspecified) , please?
## Output F

## Input Could you do the same for CC[C@@]1(O)C(=O)OCc2c1cc1n(c2=O)Cc2cc3c([N+](=O)[O-])cccc3nc2-1 , please?
## Output T

## Input Could you do the same for CC(=O)N[C@@H](CC(=O)N[C@@H](CCC(=O)O)C(=O)O)C(=O)O , please?
## Output F

## Input Could you do the same for CCC(=O)OCC(=O)[C@@]1(OC(=O)CC)[C@H](C)C[C@H]2[C@H]3[C@H]([C@@H](O)C[C@@]21C)[C@@]1(C)C=CC(=O)C=C1C[C@H]3Cl , please?
## Output F

## Input Could you do the same for CC(=O)Oc1c(C)cc(OCC(O)CNC(C)C)c(C)c1C (stereo unspecified) , please?
## Output F

## Input Could you do the same for OC[C@H]1O[C@@H](OCCc2ccc(O)cc2)[C@H](O)[C@@H](O)[C@@H]1O , please?
## Output F

## Input Could you do the same for CCNC(=O)[C@@H]1CCCN1C(=O)[C@H](CCCN=C(N)N)NC(=O)[C@H](CC(C)C)NC(=O)[C@@H](Cc1c[nH]c2ccccc12)NC(=O)[C@H](Cc1ccc(O)cc1)NC(=O)[C@H](CO)NC(=O)[C@H](Cc1c[nH]c2ccccc12)NC(=O)[C@H](Cc1cnc[nH]1)NC(=O)[C@@H]1CCC(=O)N1 , please?
## Output T

## Input Could you do the same for CO[C@H]1C[C@H](O[C@H]2[C@H](C)[C@@H](O[C@@H]3O[C@H](C)C[C@H](N(C)C)[C@H]3OC(C)=O)[C@@H](C)C[C@]3(CO3)C(=O)[C@H](C)[C@@H](OC(C)=O)[C@@H](C)[C@@H](C)OC(=O)[C@@H]2C)O[C@@H](C)[C@@H]1OC(C)=O , please?
## Output F

## Input Could you do the same for Nc1c(Br)cc(Br)cc1CNC1CCC(O)CC1 (stereo unspecified) , please?
## Output F

## Input Could you do the same for C#C[C@]1(O)CC[C@H]2[C@@H]3CCC4=C/C(=N/O)CC[C@@H]4[C@H]3CC[C@@]21CC , please?
## Output T

---

- System: JCK
- protocolDetails: qHTS profiling for inhibitors of Plasmodium falciparum proliferation (AID 504749); further: nearly all actives have a fitted effect of over 60% in size
- measurementSetup: P. falciparum in erythrocytes, SYBR Green DNA, 72 h; series mostly up to 28.7 µM
Inconclusive results are not listed. Calls of active or inactive are those of the source. Calls follow the shape of the dose curve; as a rule, active = well fitted inhibition curve with a large enough effect; inconclusive = small, poorly fitted or top-dose-only effect; inactive = flat fitted curve, though single readings scatter.
Response enum: true (1) (active), false (0) (inactive)

## Input Which outcome was assigned to CCCCCCCCCCCCCCCC(=O)OCC(COC(=O)CCCCCCCCCCCCCCC)OC(=O)CCCCCCCCCCCCCCC in this test?
## Output false (0)

## Input Could you do the same for CC1=CCC(C(C)(C)O)CC1 (configuration not stated) , please?
## Output false (0)

## Input Could you do the same for O=C(Nc1cccc(C(F)(F)F)c1)c1cc(Br)cc(Br)c1O , please?
## Output true (1)

## Input Could you do the same for COCC(=O)Nc1cc(Sc2ccccc2)ccc1N=C(NC(=O)OC)NC(=O)OC , please?
## Output false (0)

## Input Could you do the same for C[C@H]1C[C@H]2[C@@H]3CCC4=CC(=O)C=C[C@]4(C)[C@@]3(F)[C@@H](O)C[C@]2(C)[C@@]1(O)C(=O)CO , please?
## Output false (0)

## Input Could you do the same for CCOc1ccc2c(c1)C(C)=CC(C)(C)N2 , please?
## Output false (0)

## Input Could you do the same for CC(C(=O)O)c1ccc(N2Cc3ccccc3C2=O)cc1 (configuration not stated) , please?
## Output false (0)

## Input Could you do the same for CN=C(NC#N)Nc1ccc(C2=NNC(=O)C[C@@H]2C)cc1 , please?
## Output false (0)

## Input Could you do the same for CCCC(=O)O[C@]1(C(=O)CCl)[C@H](C)C[C@@H]2[C@H]3CCC4=CC(=O)C=C[C@]4(C)[C@@]3(F)C(=O)C[C@@]21C , please?
## Output true (1)

## Input Could you do the same for CC(O)CO (configuration not stated) , please?
## Output false (0)

## Input Could you do the same for COC(=O)[C@H]1[C@H]2CC3c4[nH]c5ccccc5c4CCN3C[C@@H]2CC[C@@H]1O (some centres not stated) , please?
## Output false (0)

## Input Could you do the same for O=C(O)c1cc(O)c2c(c1)[O][Bi][O]2 , please?
## Output false (0)

## Input Could you do the same for C=C1C(=CC=C2CCC[C@@]3(C)[C@@H]2CC[C@H]3[C@H](C)CCCC(C)C)C[C@@H](O)C[C@@H]1O , please?
## Output false (0)

## Input Could you do the same for Cc1cn([C@H]2C[C@H](O)[C@@H](CO)O2)c(=O)[nH]c1=O , please?
## Output false (0)

## Input Could you do the same for O=S(=O)(O)c1ccc2c(N=Nc3ccc(S(=O)(=O)O)c4ccccc34)c(O)c(S(=O)(=O)O)cc2c1 , please?
## Output false (0)

## Input Could you do the same for Nc1c(Br)cc(Br)cc1CNC1CCC(O)CC1 (configuration not stated) , please?
## Output false (0)

## Input Could you do the same for O=C1CSC2(CCN(CCCN3c4ccccc4Sc4ccc(Cl)cc43)CC2)N1 , please?
## Output false (0)

## Input Could you do the same for CCN(CC)CCOc1ccc(-c2nc3cc(Cl)ccc3s2)cc1 , please?
## Output false (0)

## Input Could you do the same for O=C(O)CN(CCN(CC(=O)O)CC(=O)O)CC(=O)O , please?
## Output false (0)

## Input Could you do the same for COC(=O)[C@H]1[C@H]2C[C@@H]3c4[nH]c5ccccc5c4CCN3C[C@H]2C[C@@H](OC(=O)c2cc(OC)c(OC)c(OC)c2)[C@@H]1OC , please?
## Output true (1)

## Input Could you do the same for CC1(C)S[C@@H]2[C@H](NC(=O)[C@@H](NC(=O)N3CCNC3=O)c3ccccc3)C(=O)N2[C@H]1C(=O)O , please?
## Output false (0)

## Input Could you do the same for CC1=C(/C=C/C(C)=C/C=C/C(C)=C/C=C/C=C(C)/C=C/C=C(C)/C=C/C2=C(C)CCCC2(C)C)C(C)(C)CCC1 , please?
## Output false (0)
